Reference source: patent US6835382B2

Biological target: murine E^d MHC class II allele (Mus musculus, UniProt P01904+P01915)
Sequence (P01904 26-255): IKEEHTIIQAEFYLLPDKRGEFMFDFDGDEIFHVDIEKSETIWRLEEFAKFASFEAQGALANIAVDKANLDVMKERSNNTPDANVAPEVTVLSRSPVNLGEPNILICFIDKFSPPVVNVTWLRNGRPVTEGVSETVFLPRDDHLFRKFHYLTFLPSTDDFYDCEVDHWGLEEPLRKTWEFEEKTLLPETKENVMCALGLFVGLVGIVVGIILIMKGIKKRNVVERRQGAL
Sequence (P01915 27-264 limits assumed): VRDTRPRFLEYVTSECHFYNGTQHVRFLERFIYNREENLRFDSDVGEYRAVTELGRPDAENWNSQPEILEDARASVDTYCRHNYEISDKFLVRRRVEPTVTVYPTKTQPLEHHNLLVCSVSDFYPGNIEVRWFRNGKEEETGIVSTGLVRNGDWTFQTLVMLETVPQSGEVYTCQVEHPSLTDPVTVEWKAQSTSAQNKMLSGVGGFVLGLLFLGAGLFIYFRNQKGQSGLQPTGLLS
Assay: antigenic peptide prepulse assay, E^d allele (fixed APC prepulsed with HEL106-116)
Type: cell-based
Parameters: The A20 and CH27 B cell lymphoma lines express H-2^d and H-2^k alleles, respectively; endogenous in cells; host or cells: A20 B cell lymphoma (mitomycin C-treated or paraformaldehyde-fixed)
Settings: Table 28; AE peptide 64 μM; prepulse 24 μM antigenic peptide; supernatant 1:4
Experimental: In a second type of assay, the “peptide prepulse assay”, the antigenic peptide is incubated with paraformaldehyde-fixed APC for 6 h. The APC are washed and incubated for 24 h with the AE101 series homolog and the T cell hybridoma specific for the antigenic peptide. […] Antigenic peptide-specific T cell activation was measured by the following procedure. […]
Positions of bridges follow the written chain, without caps; N, C: chain ends. No end group written: not given here.
ENDPOINT_NAME: Activity in antigenic peptide prepulse assay, E^d (baseline = 1.0)
Respond with the number and no other words.

The following substances have reported results that may help.
Ac-LRMK Y PK-NH2 (Ac-LRMKYPK-NH2; not fully specified; printed as Ac-LRMK Y PK-NH2) [AE235] = 0.30
cyclic LRMKLPK (bridge (positions not given here); also: cyclic, ring type not given here) [AE381, “head-to-tail” cyclization from the amino-terminus to the carboxyl-terminus of AE114] = 0.19
Ac-LRMKLPK (lactam 4-C) [AE382] = 0.52

Here is another substance to look at.
Prompt: Give recorded Activity in antigenic peptide prepulse assay, E^d (baseline = 1.0) with murine E^d MHC class II allele (Mus musculus, UniProt P01904+P01915) for the following substance: Ac-LRMKLPK-NH2 [AE114]
Completion: 0.41
